- SUBJECT_OF_TEST: T1, human SIRPβ stably expressed on CHOK1 cells (human, UniProt O00241 30-398)
- T1 construct: whole, on cells; also called CHOK1-human SIRPB; CHOK1-hSIRPβ
- ASSAY_SUMMARY: FACS, CHOK1 cells stably expressing human SIRPβ

{"columns": ["BINDER", "EC50 (read off the curve)"],
 "data": [
  ["hu025.060 (antibody, V domains shown, Humanized 025; also called hu025.60) VH: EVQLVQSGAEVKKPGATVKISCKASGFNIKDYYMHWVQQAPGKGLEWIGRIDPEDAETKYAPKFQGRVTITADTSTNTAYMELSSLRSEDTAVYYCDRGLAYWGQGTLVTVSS VL: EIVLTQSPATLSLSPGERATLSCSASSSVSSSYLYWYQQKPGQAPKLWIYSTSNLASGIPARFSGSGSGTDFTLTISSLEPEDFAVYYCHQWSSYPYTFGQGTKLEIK", "~700 pM"],
  ["025c (antibody, V domains shown, also called chimeric antibody 025c; parental antibody of 025c) VH: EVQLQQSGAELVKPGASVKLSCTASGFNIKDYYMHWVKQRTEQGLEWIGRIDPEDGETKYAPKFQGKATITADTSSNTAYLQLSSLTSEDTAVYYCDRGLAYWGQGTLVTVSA VL: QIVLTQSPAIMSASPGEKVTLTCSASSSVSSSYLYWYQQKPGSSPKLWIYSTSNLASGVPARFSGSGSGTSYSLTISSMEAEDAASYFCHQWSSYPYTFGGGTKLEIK", "~700 pM"]
]}
